Provenance of the data: ChEMBL document CHEMBL4627278

Test: Prodrug conversion in dog liver assessed as nucleotide triphosphate level at 5 mg/kg, po co-dosed with 5 mg/kg sofosbuvir after 4 hrs
Format: ADME, organism-based, Canis lupus familiaris
Details: in vivo

compound: CC(C)OC(=O)[C@H](C)N[P@@](=O)(OC[C@H]1O[C@@H](n2ccc(=O)[nH]c2=O)[C@](Cl)(Br)[C@@H]1O)Oc1ccccc1
unit-spec: µg/g
Drug metabolism: 1.76

compound: CC(C)OC(=O)C(C)(C)NP(=O)(OC[C@H]1O[C@@H](n2ccc(=O)[nH]c2=O)[C@](Cl)(Br)[C@@H]1O)Oc1ccccc1 (some centres not stated)
unit-spec: µg/g
Drug metabolism: 4.2

compound: CC(C)OC(=O)[C@H](C)N[P@](=O)(OC[C@H]1O[C@@H](n2ccc(=O)[nH]c2=O)[C@](Cl)(Br)[C@@H]1OC(=O)[C@@H](N)C(C)C)Oc1ccccc1
unit-spec: µg/g
Drug metabolism: 3.1

compound: CC(C)C(=O)OC[C@H](C)NP(=O)(OC[C@H]1O[C@@H](n2ccc(=O)[nH]c2=O)[C@](Cl)(Br)[C@@H]1O)Oc1ccccc1 (some centres not stated)
unit-spec: µg/g
Drug metabolism: 3.04

compound: CCOC(=O)[C@H](C)NP(=O)(OC[C@H]1O[C@@H](n2ccc(=O)[nH]c2=O)[C@](Cl)(Br)[C@@H]1O)Oc1ccccc1 (some centres not stated)
unit-spec: µg/g
Drug metabolism: 3.87

compound: CCOC(=O)C(C)(C)NP(=O)(OC[C@H]1O[C@@H](n2ccc(=O)[nH]c2=O)[C@](Cl)(Br)[C@@H]1O)Oc1ccccc1 (some centres not stated)
unit-spec: µg/g
Drug metabolism: 4.02

compound: CC(C)OC(=O)[C@H](C)N[P@](=O)(OC[C@H]1O[C@@H](n2ccc(=O)[nH]c2=O)[C@](Cl)(Br)[C@@H]1O)Oc1ccccc1
unit-spec: µg/g
Drug metabolism: 1.59
